target or system: 17β-hydroxysteroid dehydrogenase type 3 (17β-HSD type 3) (Homo sapiens)
Construct: expressed in transfected cells; host or cells: MCF-7
Sequence (P37058 1-310): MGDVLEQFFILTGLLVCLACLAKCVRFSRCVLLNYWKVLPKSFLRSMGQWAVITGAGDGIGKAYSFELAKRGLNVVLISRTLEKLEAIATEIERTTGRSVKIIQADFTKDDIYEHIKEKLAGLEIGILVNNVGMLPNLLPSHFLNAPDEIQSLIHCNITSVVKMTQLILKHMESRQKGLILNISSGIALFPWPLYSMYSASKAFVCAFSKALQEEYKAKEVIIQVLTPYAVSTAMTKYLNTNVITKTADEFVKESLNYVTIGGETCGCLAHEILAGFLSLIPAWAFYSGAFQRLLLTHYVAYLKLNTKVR
experimental details: Inhibition of 17β-HSD type 3 in MCF-7 cells stably expressing the isoenzyme (tritium labeled androstenedione conversion, HPLC)
Type: cell-based
test parameters: MCF7; 10 μM test compound; MCF-7 cells expressing 17β-HSD type 3; 2 nM tritium labeled androstenedione; read-out: % Inhibition HSD3 10 μM
experimental readout: inhibition at 10 µM (%)
# value in %; strip the unit string

The cases that follow already have their inhibition at 10 µM on record.
molecule	experimental readout	reported measurement
CCC(C)Cn1c(-c2cc(OC)c(OC)c(OC)c2)nc2sc3c(c2c1=O)CCC(Br)C3=O (centres unmarked)	inhibition at 10 µM	29.3
Cc1nc2sc3c(c2c(=O)n1-c1ccccc1)CCCC3	inhibition at 10 µM	30.9
COc1cc(-c2nc3sc4c(c3c(=O)n2Cc2ccccc2)CCC(Br)C4=O)cc(OC)c1OC (centres unmarked)	inhibition at 10 µM	37.1
CCCc1nc2sc3c(c2c(=O)n1Cc1ccc(Br)o1)CCC(Br)C3=O (centres unmarked)	inhibition at 10 µM	51.8
COC(=O)Cc1nc2sc3c(c2c(=O)n1Cc1ccccc1)CCCC3	inhibition at 10 µM	7.1

Dear colleague, I am looking for the recorded inhibition at 10 µM of the following molecule: CCC(C)Cn1c(-c2cc(OC)c(OC)c(OC)c2)nc2sc3c(c2c1=O)CCCC3 (centres unmarked)
21

Dear colleague, I am looking for the recorded inhibition at 10 µM of the following molecule: CCCc1nc2sc3c(c2c(=O)n1Cc1ccccc1OC)CCCC3=O
62.4

Dear colleague, I am looking for the recorded inhibition at 10 µM of the following molecule: CC(=O)OCc1nc2sc3c(c2c(=O)n1Cc1ccccc1)CCCC3
28.4

###

Listing of entries alongside the reported inhibition at 10 µM.
target or system: 17β-hydroxysteroid dehydrogenase type 3 (17β-HSD type 3) (Homo sapiens, UniProt P37058)
Construct: expressed in transfected cells; host or cells: MCF-7
experimental details: Inhibition of 17β-HSD type 3 in MCF-7 cells stably expressing the isoenzyme (tritium labeled androstenedione conversion, HPLC)
Format: cell-based
test parameters: MCF7; 10 μM test compound; MCF-7 cells expressing 17β-HSD type 3; 2 nM tritium labeled androstenedione; read-out: % Inhibition HSD3 10 μM
# value in %; strip the unit string

compound	target or system	inhibition at 10 µM (%)
O=C(OCCn1c(-c2cccs2)nc2sc3c(O)cccc3c2c1=O)c1cccs1	17β-hydroxysteroid dehydrogenase type 3 (17β-HSD type 3) (Homo sapiens, UniProt P37058)	82.6
COc1cc(-c2nc3sc4c(c3c(=O)n2CC(C)C)CCCC4=O)cc(OC)c1OC	17β-hydroxysteroid dehydrogenase type 3 (17β-HSD type 3) (Homo sapiens, UniProt P37058)	32
O=c1c2c(nc(-c3ccc(Br)s3)n1Cc1ccccc1)sc1c(O)cccc12	17β-hydroxysteroid dehydrogenase type 3 (17β-HSD type 3) (Homo sapiens, UniProt P37058)	40.7

Dear colleague, I am looking for the recorded inhibition at 10 µM of the following compound: CC(=O)OCc1nc2sc3c(c2c(=O)n1-c1ccccc1)CCCC3
12.8

Dear colleague, I am looking for the recorded inhibition at 10 µM of the following compound: CCCCn1c(-c2cc(OC)c(OC)c(OC)c2)nc2sc3c(c2c1=O)CCCC3
24.4

Dear colleague, I am looking for the recorded inhibition at 10 µM of the following compound: COCc1nc2sc3c(c2c(=O)n1-c1ccccc1)CCCC3=O
22.2
